- tested.on: Protein disulfide-isomerase (Homo sapiens)
- experimental.details: Inhibition of recombinant human N-terminal His-tagged PDI expressed in Escherichia coli BL21 (DE3) pLysS assessed as reduction in enzyme-mediated bovine insulin aggregation
pIC50: −log10 of the molar value.
readout.label: pIC50

Given item CCCCCN(CCCCC)S(=O)(=O)c1ccc(C(=O)/C=C/c2cccc(O)c2)cc1 , the value recorded as its pIC50 is 6.09

pIC50 for CCCCN(CCCC)S(=O)(=O)c1ccc(C(=O)/C=C/c2cccc(C#N)c2)cc1 is 5.87

Looking up N#Cc1ccc(/C=C/C(=O)c2ccc(F)cc2O)cc1 , I see its pIC50 listed as 5.74

Given item CCN(CC)S(=O)(=O)c1ccc(C(=O)/C=C/c2cccc(C#N)c2)cc1 , the value recorded as its pIC50 is 5.91

Per the records, this compound ( COc1cc(C(=O)/C=C/c2cccc(C#N)c2)ccc1O ) has pIC50 equal to 5.57

[a] N#Cc1ccc(/C=C/C(=O)c2ccc(F)c(O)c2)cc1
[b] N#Cc1cccc(/C=C/C(=O)c2ccc(S(=O)(=O)Nc3ccccc3)cc2)c1
[c] O=C(O)c1cccc(/C=C/C(=O)c2cccc(O)c2)c1
List items by pIC50 in falling order. Field: ranking. Enter the labels in the order requested.
b, a, c

* * *

- tested.on: Protein disulfide-isomerase (Homo sapiens, UniProt P07237)
- Sequence (P07237 whole entry): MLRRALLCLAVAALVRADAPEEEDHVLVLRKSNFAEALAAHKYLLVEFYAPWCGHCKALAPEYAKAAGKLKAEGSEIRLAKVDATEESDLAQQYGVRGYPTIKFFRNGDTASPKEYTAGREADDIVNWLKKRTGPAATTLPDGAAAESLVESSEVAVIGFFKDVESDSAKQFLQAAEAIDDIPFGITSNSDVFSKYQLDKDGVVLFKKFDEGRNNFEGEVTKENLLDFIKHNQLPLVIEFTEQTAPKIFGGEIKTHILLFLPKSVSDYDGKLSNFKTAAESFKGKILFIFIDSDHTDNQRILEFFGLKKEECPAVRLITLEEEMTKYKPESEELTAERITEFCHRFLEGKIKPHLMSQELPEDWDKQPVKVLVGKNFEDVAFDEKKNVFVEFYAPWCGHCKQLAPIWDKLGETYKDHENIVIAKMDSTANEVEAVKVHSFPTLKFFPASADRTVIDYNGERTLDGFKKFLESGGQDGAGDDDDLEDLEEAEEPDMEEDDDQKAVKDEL
- experimental.details: Binding affinity to recombinant human N-terminal His-tagged PDI expressed in Escherichia coli BL21 (DE3) pLysS by isothermal titration calorimetry
- conditions.used: read-out: Kd
readout.label: pKd
Scale note: pKd = -log10(concentration in M).

Form field pKd for item N#Cc1cccc(/C=C/C(=O)c2ccc(O)cc2)c1 on Protein disulfide-isomerase (Homo sapiens, UniProt P07237): 5.04

* * *

- tested.on: UniProt P07237
- experimental.details: Inhibition of recombinant human N-terminal His-tagged PDI expressed in Escherichia coli BL21 (DE3) pLysS assessed as reduction in enzyme-mediated bovine insulin aggregation
pIC50: −log10 of the molar value.
readout.label: pIC50

[a] COc1cccc(C(=O)/C=C/c2cccc(C#N)c2)c1
[b] O=C(O)c1cccc(/C=C/C(=O)c2ccc(NS(=O)(=O)c3ccc([N+](=O)[O-])cc3)cc2)c1
Lower pIC50: a or b ? Provide the label of your selected option as the answer.
a

* * *

- tested.on: Protein disulfide-isomerase (Homo sapiens, UniProt P07237)
- experimental.details: Inhibition of recombinant human N-terminal His-tagged PDI expressed in Escherichia coli BL21 (DE3) pLysS assessed as reduction in enzyme-mediated bovine insulin aggregation
pIC50: −log10 of the molar value.
readout.label: pIC50

[a] N#Cc1cccc(/C=C/C(=O)c2ccc(F)c(O)c2)c1
[b] CCCCCN(CCCCC)S(=O)(=O)c1ccc(C(=O)/C=C/c2cccc(C#N)c2)cc1
[c] CC1(C)OB(c2ccc(/C=C/C(=O)c3ccccc3)cc2)OC1(C)C
[d] O=C(/C=C/c1cccc(O)c1)c1ccc(NC(=O)c2cccs2)cc1
# ascending order, key=pIC50 Provide the labels, sequenced as the question asks.
d, c, a, b
(d: 5.24, c: 5.66, a: 5.94, b: 6.80)

[1] N#Cc1cccc(/C=C/C(=O)c2ccc(B(O)O)cc2)c1
[2] N#Cc1ccc(/C=C/C(=O)c2ccc(O)c(F)c2)cc1
Pick one, 1 or 2 : lowest reported pIC50. Answer with the label corresponding to your selection.
1
